molecular target: human Nav1.1 (Homo sapiens, UniProt P35498); construct: host or cells: HEK293; experiment: Amplification of Nav1.1-derived voltage-gated sodium current (Nav1.1 current), automated patch clamp (Test 1); type: cell-based; details: Concentration for evaluation 1 μM; HEK293 cell line stably expressing human Nav1.1
observationType: Nav1.1 current amplification rate (%)

Worked set:
Enquiry: Field request: Nav1.1 current amplification rate (%) | item: CC1CC=C(c2ccc(=O)n(CC(=O)N3CCc4c3ccnc4C3=CCOC3)n2)CC1 (centres unmarked)
Return: 91

Enquiry: And then CC1CC=C(c2ccc(=O)n(CC(=O)N3CCc4c(CN5CC=CC5)cccc43)n2)CC1 (centres unmarked) , what is it?
Return: 73

Enquiry: Proceed to CN(c1cnc2cnn(CC(=O)Nc3cnc4cccnc4c3)c2n1)C1CC1
Return: 112

Enquiry: Follow-up item: CC1CC=C(c2ccc(=O)n(CC(=O)N3CCc4c(Cn5cncn5)cccc43)n2)CC1 (centres unmarked)
Return: 271

A = CN(c1cnc2cnn(CC(=O)N3CCc4c(-c5ccnn5C)cccc43)c2n1)C1CCC1
B = CN(c1cnc2cnn(CC(=O)N3CCc4c(C5=CCOCC5)cccc43)c2n1)C1CCC1
C = CN(c1cnc2cnn(CC(=O)Nc3ccc4cnnn4c3)c2n1)C1CCCC1
D = CN(c1cnc2cnn(CC(=O)N3CCc4c3cccc4C(C)(C)O)c2n1)C1CC1
E = CC1CC=C(c2cnc3cnn(CC(=O)Nc4ccc5cncnc5c4)c3n2)CC1 (centres unmarked)
Enquiry: rank_up(items): orders items by reported Nav1.1 current amplification rate (%) in ascending numerical order. Write out the labels following the order that was asked for.
Return: A, C, D, B, E
(A: 13%, C: 63%, D: 107%, B: 201%, E: 361%)

1 = CC1CC=C(c2ccc(=O)n(CC(=O)N3CCc4c3ccnc4-c3cccnc3)n2)CC1 (centres unmarked)
2 = CC1CC=C(c2ccc(=O)n(CC(=O)N3CCc4c3ccnc4C3=CCOCC3)n2)CC1 (centres unmarked)
3 = COc1cc(C2=CCC(C)(C)CC2)nn(CC(=O)N2CCc3c(N4CCOCC4)cccc32)c1=O
4 = CN(c1cnc2cnn(CC(=O)Nc3ccc4ccncc4n3)c2n1)C1CC1
Enquiry: Descending sort on Nav1.1 current amplification rate (%) required. Please reply with the labels ordered as requested. Many thanks.
Return: 3, 1, 2, 4
(3: 275%, 1: 151%, 2: 87%, 4: 28%)

A = CC1CC=C(c2ncc3cnn(CC(=O)Nc4ccn5ncnc5c4)c3n2)CC1 (racemic)
B = O=C(Cn1nc(C2=CCCCC2)ccc1=O)N1CCc2c(N3CCOCC3)cccc21
Enquiry: # returns the entry with the larger Nav1.1 current amplification rate (%); inputs A and B # reply format: chosen label
Return: A

P = CC1CC=C(c2ccc(=O)n(CC(=O)N3CCc4c(CN(C)C5COC5)cccc43)n2)CC1 (centres unmarked)
Q = CC(C1CCC1)N(C)c1cnc2cnn(CC(=O)Nc3ccn4ncnc4c3)c2n1 (centres unmarked)
Enquiry: Between P and Q , whose recorded Nav1.1 current amplification rate (%) is greater? Write down the label of the entry you select.
Return: P
(P: 207%, Q: 13%)

----------
Target: human Nav1.1 (Homo sapiens, UniProt P35498)
Construct: host or cells: HEK293
Experiment: Amplification of Nav1.1-derived voltage-gated sodium current (Nav1.1 current), automated patch clamp (Test 1)
Format: cell-based
Settings: Concentration for evaluation 3 μM; HEK293 cell line stably expressing human Nav1.1
Experimental: Test 1: Evaluation of the Amplification of Nav1.1-Derived Voltage-Gated Sodium Current (Nav1.1 Current) by Using a Cell Line Stably Expressing Human Nav1.1 (1) Preparation of Test Compound Solution […] The effect of test compounds on the amplification of Nav1.1-derived voltage-gated sodium current was evaluated by using a cell line stably expressing human Nav1.1 and HTS automated patch clamp system. […] The Nav1.1 current amplification rates of test compounds were calculated by the following formula: […]
observationType: Nav1.1 current amplification rate (%)

Illustrative cases are given below, each with its answer.
Enquiry: Report Nav1.1 current amplification rate (%) for CC1CC=C(c2ccc(=O)n(CC(=O)N3CCc4c(-c5ccnnc5)cccc43)n2)CC1 (stereo not drawn) [Example 253] please.
Return: 455

Enquiry: Similarly, Cc1nc2cc(NC(=O)Cn3nc(C4=CCC(C)CC4)ccc3=O)ccn2c1C (stereo not drawn) [Example 329] ?
Return: 100

Enquiry: Same question for COc1ccc(N2CCN(C(=O)Cn3nc(C4=CCC(C)CC4)ccc3=O)CC2)cn1 (stereo not drawn) [Example 407] please.
Return: 113

Enquiry: What about COc1cnc(C)c(N2CCN(C(=O)Cn3nc(C4=CCC(C)CC4)ccc3=O)CC2)c1 (stereo not drawn) [Example 418] ?
Return: 105

Enquiry: Then this molecule: Cc1nc2cc(NC(=O)Cn3nc(C4=CCC(C)CC4)ccc3=O)cnc2s1 (stereo not drawn) [Example 326]
Return: 132

Enquiry: And then CC1CC=C(c2ccc(=O)n(CC(=O)N3CCc4c(CO)cccc43)n2)CC1 (stereo not drawn) [Example 266] , what is it?
Return: 108

Enquiry: Again, but for Cc1ncc(-c2cccc3c2CCN3C(=O)Cn2nc(C3=CCC(C)CC3)ccc2=O)cn1 (stereo not drawn) [Example 264]
Return: 597

Enquiry: Please do the same for CC1CC=C(c2ccc(=O)n(CC(=O)N3CCc4c(C5CNC5)cccc43)n2)CC1 (stereo not drawn) [Example 299] as well.
Return: 6

Enquiry: // repeat for CC1CC=C(c2ccc(=O)n(CC(=O)N3CCc4c(C5CN(C)C5)cccc43)n2)CC1 (stereo not drawn) [Example 300] and report
Return: 140

Enquiry: COc1cc(N2CCN(C(=O)Cn3nc(C4=CCC(C)CC4)ccc3=O)CC2)ccc1F (stereo not drawn) [Example 413] ?
Return: 27

a = CC1CC=C(c2ccc(=O)n(CC(=O)N3CCc4c(C5CN(C(=O)C(C)(C)O)C5)cccc43)n2)CC1 (stereo not drawn) [Example 306]
b = COc1ncc(N2CCN(C(=O)Cn3nc(C4=CCC(C)CC4)ccc3=O)CC2)cc1F (stereo not drawn) [Example 409]
Enquiry: Pick the one with the larger Nav1.1 current amplification rate (%): a vs b Answer with the label corresponding to your selection.
Return: a
(a: 532%, b: 244%)

A = CN(c1cnc2cnn(CC(=O)N3CCN(c4cccc(F)c4)CC3)c2n1)C1CC1 [Example 714]
B = COCc1nc2cc(NC(=O)Cn3nc(C4=CCC(C)CC4)ccc3=O)ccc2o1 (stereo not drawn) [Example 325]
Enquiry: I'm curious, which of these has a smaller Nav1.1 current amplification rate (%) number: A or B ? Give the label of your selection.
Return: A

----------
molecular target: human Nav1.1 (Homo sapiens); construct: host or cells: HEK293; test: Amplification of Nav1.1-derived voltage-gated sodium current (Nav1.1 current), automated patch clamp (Test 1); type: cell-based; settings: Concentration for evaluation 50 μM; HEK293 cell line stably expressing human Nav1.1
observationType: Nav1.1 current amplification rate (%)

Enquiry: Tell me the measured Nav1.1 current amplification rate (%) of CN(c1cnc2cnn(CC(=O)Nc3ccc4cccnc4n3)c2n1)C1CC1 , please.
Return: 78

Enquiry: Next entry: CN(CC(F)F)c1cnc2cnn(CC(=O)Nc3ccn4ncnc4c3)c2n1
Return: 60

Enquiry: Item: Cc1cc2ncnn2cc1NC(=O)Cn1nc(C2=CCC(C)CC2)ccc1=O (centres unmarked)
Return: 98

A = CC1CCC(F)(F)CN1c1ncc2cnn(CC(=O)Nc3ccn4ncnc4c3)c2n1 (centres unmarked)
B = CC1CC=C(c2ccc(=O)n(CC(=O)N3CCN(C4CCCOC4)CC3)n2)CC1 (centres unmarked)
C = CC1CC=C(c2ccc(=O)n(CC(=O)N3CC=C(c4cccnc4)C3)n2)CC1 (centres unmarked)
D = CC1CC=C(c2ccc(=O)n(CC(=O)N3CCN(C4CCOCC4)CC3)n2)CC1 (centres unmarked)
Enquiry: Arrange the 4 compounds from largest to smallest Nav1.1 current amplification rate (%). Give the labels in the order requested.
Return: C, B, A, D

----------
target: human Nav1.1 (Homo sapiens, UniProt P35498); construct: host or cells: HEK293; assay: Amplification of Nav1.1-derived voltage-gated sodium current (Nav1.1 current), automated patch clamp (Test 1); format: cell-based; conditions: concentration for evaluation 1 μM; HEK293 stably expressing human Nav1.1
observationType: Nav1.1 current amplification rate (%)

Completed entries (count: 3):
Enquiry: Nav1.1 current amplification rate (%) lookup needed for CC1(C)CCN(c2ccc3cnn(CC(=O)Nc4ccn5ncnc5c4)c3n2)CC1 , thanks.
Return: 50

Enquiry: // repeat for O=C(Cn1ncc2cnc(N3CCC4(CCC4)C3)nc21)Nc1ccc2cncnc2c1 and report
Return: 86

Enquiry: Ok, now N#Cc1ncc(NC(=O)Cn2ncc3cnc(N4CCC5(CC5)C(F)(F)C4)nc32)cn1
Return: 29

I = CN(CC1CCC1)c1ncc2cnn(CC(=O)Nc3ccn4ncnc4c3)c2n1
II = N#Cc1cnc(NC(=O)Cn2ncc3cnc(N4CCC5(CC5)C(F)(F)C4)nc32)cn1
Enquiry: // compare measured Nav1.1 current amplification rate (%) between I and II ; output the lower one Output the label that corresponds to your choice.
Return: II
